# test.method.notes: Mouse blood and tissue PK (LC/MS-MS)
# Assay type: in vivo
# test.conditions: mouse, whole blood, oral, 40 mg/kg, Model Development Dataset; 40mg/kg_study8; 24 h; read-out: Blood Concentration

substance.smiles	concentration at 24 h [nM]
CCn1c(-c2cc(N3CCN(C)CC3)cnc2[C@H](C)OC)c2c3cc(ccc31)-c1csc(n1)C[C@H](NC(=O)[C@H]1C[C@@H]1C)C(=O)N1CCC[C@H](N1)C(=O)OCC(C)(C)C2	8

----------
# test.method.notes: Mouse blood and tissue PK (LC/MS-MS)
# Format: in vivo
# test.conditions: mouse, whole blood, po, 25 mg/kg, HPAC (25 mg/kg), single dose

substance.smiles	Cmax / ng/mL
CCn1c(-c2cc(N3CCN(C)CC3)cnc2[C@H](C)OC)c2c3cc(ccc31)-c1csc(n1)C[C@H](NC(=O)[C@H]1C[C@@H]1C)C(=O)N1CCC[C@H](N1)C(=O)OCC(C)(C)C2	1310
